The measurements presented in this section are drawn from ChEMBL document CHEMBL5303304.

test system: Fibroblast; experiment: Incucyte cell viability with human fibroblast; type: toxicity, cell-based; conditions: 24 h, 10 µM, compound concentration 10 uM, replicate number 1; note: unitless GR value; below 1 slowed growth and below 0 cell loss
Numbered stars: 1 amine (or outer) side, 2 acyl side, 3 side chain; on linkers, the order of the positions; unused ones are H or OH. Bridge positions count the residues as written; N and C are the ends. Square brackets hold non-standard residues; d marks the D form. Peptide text beside a SMILES is read from it. I, II: the chains in the order shown. Hexamethylenediamine = C(CCCN[*:2])CCN[*:1]; Dip = N[C@H](C(=O)O)C(c1ccccc1)c1ccccc1; Chg = N[C@H](C(=O)O)C1CCCCC1; NMeA = CN[C@@H](C)C(=O)O
Task for the reader: assign each of the following compounds its reported Growth Rate.
Form: value (number only, do not type unit).

Incoming: Look up Growth Rate for this compound: CN[C@@H](C)C(=O)N[C@H](C(=O)N1CCC[C@H]1C(=O)N[C@H](C(=O)NCCCCCCNC(=O)[C@@H](NC(=O)[C@@H]1CCCN1C(=O)[C@@H](NC(=O)[C@H](C)NC)C1CCCCC1)C(c1ccccc1)c1ccccc1)C(c1ccccc1)c1ccccc1)C1CCCCC1 (I: H-[NMeA][Chg]P[Dip] / II: H-[NMeA][Chg]P[Dip]; linker I:C-II:C via Hexamethylenediamine)
Outgoing: 0.5

Incoming: Also need `N=C(N)NCCC[C@H](NC(=O)C(c1ccccc1)c1ccccc1)C(=O)NCc1ccc(CNC(N)=O)cc1.O=C(O)C(F)(F)F` , thanks.
Outgoing: 0.9

Incoming: Now consider `Cc1ccc(-c2c(C(=O)CF)n(CCCO)c3ncnc(N)c23)cc1` and answer again.
Outgoing: 0.33

Incoming: Another compound to check: `c1cc(-c2cnn3cc(-c4ccc(N5CCNCC5)cc4)cnc23)c2cccnc2c1`
Outgoing: 0.25

Incoming: Thanks! And CCCCCN1C(=O)C2(COc3cc4c(cc32)OCO4)c2ccccc21 (centres undefined) ?
Outgoing: 0.82

Incoming: # iterate: `CNC(=O)c1cccc(-c2ccc3c(N4CCOC[C@@H]4C)nc(N4CCOC[C@@H]4C)nc3n2)c1`
Outgoing: 0.66

Incoming: Now consider `COc1ncc(-c2cc(-c3ncc(CN4C[C@@H](C)O[C@@H](C)C4)o3)c3cn[nH]c3c2)cc1NS(C)(=O)=O` and answer again.
Outgoing: -0.03

Incoming: Could you do the same for `Cc1ncsc1-c1ccc(CNC(=O)[C@@H]2C[C@@H](O)CN2C(=O)[C@@H](NC(=O)CCCCNC(=O)c2ccc(-c3ccc(N4CCN(C)CC4)c(NC(=O)c4c[nH]c(=O)cc4C(F)(F)F)c3)cc2)C(C)(C)C)cc1` , please?
Outgoing: 0.46

Incoming: Note, next up: `CS(=O)(=O)O.C[C@H](NC(=O)c1cnc2n1[C@](C)(Cc1ccc(C#N)cc1)C(=O)N2c1cc(Cl)c(F)c(Cl)c1)C(=O)NC1(c2ccccn2)CC1`
Outgoing: 0.73

Incoming: Next record, please: `CCC(=O)Nc1cc(Nc2cc(NC3CC3)n3ncc(C#N)c3n2)ccc1C`
Outgoing: 0.48

Incoming: Now the compound `N[C@@H](Cn1cc(F)c(=O)[nH]c1=O)C(=O)O`
Outgoing: 0.97

Incoming: Could you do the same for `O[C@]1(C(F)(F)F)CCCC[C@H]1Nc1ccc(F)cc1` , please?
Outgoing: 0.89

Incoming: Try this compound too: CCCCCCCC/C=C\CCCCCCCC(=O)NCCO [OLEOYLETHANOLAMIDE]
Outgoing: 0.78

Incoming: Next compound up: `CO[C@H]1CC[C@H](N(c2cc(F)c(Oc3ncc(Cn4nccn4)cc3C(F)(F)F)cc2C(=O)O)C(=O)[C@H]2CC[C@H](C)CC2)CC1`
Outgoing: 0.77
